# System: ACHN renal
# test_name: NCI tumour cell line growth inhibition, 48 h
Entries annotated with measured TGI

Example results:
O=c1[nH]c(=O)n(C2CC(O)C(CO)O2)cc1C#Cc1c(F)c(F)c(F)c(F)c1F (stereo not given) | > 100 µM
N#Cc1cnn2ccn(C3OC(COC(=O)c4ccccc4)C(OC(=O)c4ccccc4)C3OC(=O)c3ccccc3)c12 (stereo not given) | > 21.5 µM
CCN(CC)CCCn1c(=O)c2cccnc2n2c3c(=O)n(C)c(=O)n(C)c3nc12 | > 100 µM

Ask | Complete the entry with TGI for "CN=C1NC(=O)/C(=C/c2ccc3ncccc3c2)S1"
Reply | > 25 µM

Ask | Assign TGI to the following record: "O=C(O)/C=C/C(=O)Nc1ncn[nH]1"
Reply | > 100 µM

Every entry's value here was drawn from PubChem BioAssay (NCI).
